molecules and their reported IC50 cAMP
biological target: glucagon receptor (GCGR) overexpressed CHO-K1 cells or human primary hepatocytes (Homo sapiens); construct: expressed in transfected cells; host or cells: GCGR overexpressed CHO-K1 cells or human primary hepatocytes (endogenous receptor); assay: Glucagon cAMP inhibition assay (Cisbio cAMP Dynamic 2 HTRF); format: cell-based; conditions: inhibition of glucagon (EC50 concentration) induced cAMP production
Answer format: numeric, nM implied, no suffix.

                                   molecule  observed_property  experimental_result
0  CCCC[C@@H](COc1cc(C)c(-c2cc3ccccc3o2)c(C)c1)Nc1ccc(C(=O)NCCC(=O)O)cc1 [Compound 2-12]          IC50 cAMP                 62.8

The reported IC50 cAMP of the molecule COc1cc(OC[C@@H](Nc2ccc(C(=O)NCCC(=O)O)cc2)C(C)C)ccc1-c1ccc(C(F)(F)F)cc1F [Compound 13-8] was 77.8

Query CCCC[C@@H](COc1ccc(-c2ccc(Cl)cc2Cl)c(Cl)c1)Nc1ccc(C(=O)NCCC(=O)O)cc1 [Compound 3-12] yields IC50 cAMP of 28.1

IC50 cAMP recorded for this molecule, CCCC[C@@H](COc1ccc(-c2ccc(C(F)(F)F)cc2F)c(OC)c1)Nc1ccc(C(=O)NCCC(=O)O)cc1 [Compound 13-14] , is 66

* * *

target: glucagon receptor (GCGR) overexpressed CHO-K1 cells or human primary hepatocytes (Homo sapiens, UniProt P47871); construct: expressed in transfected cells; host or cells: GCGR overexpressed CHO-K1 cells or human primary hepatocytes (endogenous receptor); assay: Glucagon cAMP inhibition assay (Cisbio cAMP Dynamic 2 HTRF); type: cell-based; conditions: inhibition of glucagon (EC50 concentration) induced cAMP production
Sequence (P47871 26-477): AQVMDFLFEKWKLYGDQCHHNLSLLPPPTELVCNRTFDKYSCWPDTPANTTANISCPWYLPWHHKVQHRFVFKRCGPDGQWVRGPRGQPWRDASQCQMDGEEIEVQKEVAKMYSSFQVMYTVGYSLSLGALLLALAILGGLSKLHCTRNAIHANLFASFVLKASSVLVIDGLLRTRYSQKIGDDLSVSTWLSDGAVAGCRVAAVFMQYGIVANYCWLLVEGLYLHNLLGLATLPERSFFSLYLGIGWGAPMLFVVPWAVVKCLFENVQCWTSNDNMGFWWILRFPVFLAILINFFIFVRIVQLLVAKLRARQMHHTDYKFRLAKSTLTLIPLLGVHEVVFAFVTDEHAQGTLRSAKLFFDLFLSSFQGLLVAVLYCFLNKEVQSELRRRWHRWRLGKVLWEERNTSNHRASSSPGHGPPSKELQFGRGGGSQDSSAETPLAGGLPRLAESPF
observed property: IC50 cAMP (nM)
All answers are understood in nM, so give the number only.

Known results for compounds:
In [3]: df
Out[3]:
                                   compound  experimental_result
0  CCOC(=O)CCNC(=O)c1ccc(N[C@@H](COc2ccc(-c3nc4ccccc4s3)cc2)C(C)C)cc1 [Compound 1-51]                  197
1  CC(C)C[C@@H](COc1cnc(-c2ccc(Cl)cc2Cl)nc1)Nc1ccc(C(=O)NCCC(=O)O)cc1 [Compound 12-11]                 3585
2  CC(C)C[C@@H](COc1cnc(-c2ccc(C(F)(F)F)cc2Cl)nc1)Nc1ccc(C(=O)NCCC(=O)O)cc1 [Compound 12-9]                19185
3  CC[C@H](C)[C@@H](COc1ccc(-c2ccc(C(F)(F)F)cc2Cl)nn1)Nc1ccc(C(=O)NCCC(=O)O)cc1 [Compound 17-4]                 1266
4  CC(C)(C)[C@@H](COc1ccc(-c2ccc(C(F)(F)F)cc2F)c(F)c1)Nc1ccc(C(=O)NCCC(=O)O)cc1 [Compound 8-23]                89.46

Moving on to another compound below.
Recorded IC50 cAMP (compound CC(C)[C@@H](COc1ccc(-c2ccc(C(F)(F)F)cc2Cl)c(F)c1)Nc1ccc(C(=O)NCCC(=O)O)cc1 [Compound 8-5] ): 85

* * *

List of pIC50 values.
molecular target: glucagon receptor (GCGR) (Homo sapiens, UniProt P47871); construct: expressed in transfected cells; host or cells: CHO-K1 cells overexpressing GCGR (membrane fractions); assay: I125-glucagon binding assay (competition, GCGR membrane fractions); details: competition with I125-glucagon 0.0625 nM, membrane fractions of GCGR overexpressed CHO-K1 cells
Sequence (P47871 26-477): as above
Reminder that pIC50 means the negative base-10 logarithm of the concentration expressed in mol/L.

Solved cases below.
>>> df
                                   compound  observed_property  experimental_result
0  CCCC[C@@H](COc1ccc(-c2ccc(C(F)(F)F)cc2)c(OC)c1)Nc1ccc(C(=O)NCCC(=O)O)cc1 [Compound 13-11]              pIC50                 7.33
1  CC[C@H](C)[C@@H](COc1ccc(-c2cc3ccccc3o2)cc1)Nc1ccc(C(=O)NCCC(=O)O)cc1 [Compound 1-4]              pIC50                 6.74
2  CCCC[C@@H](COc1ccc(-c2cc(Cl)cc(Cl)c2)nc1)Nc1ccc(C(=O)NCCC(=O)O)cc1 [Compound 10-10]              pIC50                 6.50
3  CC(C)(C)[C@@H](COc1ccc(-c2ccc(Cl)cc2Cl)cc1)Nc1ccc(C(=O)NCCC(=O)O)cc1 [Compound 1-36]              pIC50                 6.85
4  CC(C)[C@@H](CSc1ccc(-c2cc3ccccc3o2)cc1)Nc1ccc(C(=O)NCCC(=O)O)cc1 [Compound 5-1]              pIC50                 5.69
5  COc1cc(OC[C@@H](Nc2ccc(C(=O)NCCC(=O)O)cc2)C(C)C)ccc1-c1ccc(C(F)(F)F)cc1Cl [Compound 13-6]              pIC50                 7.05
6  CCC(C)[C@@H](COc1cnc(-c2ccc(C(F)(F)F)cc2Cl)nc1)Nc1ccc(C(=O)NCCC(=O)O)cc1 (some centres unmarked) [Compound 12-8]              pIC50                 6.48

Note: attention shifts to another entry.
Measured pIC50 of CC(C)[C@@H](COc1ccc(-c2ccc(C(F)(F)F)cc2Cl)c(Cl)c1)Nc1ccc(C(=O)NC[C@@H](O)C(=O)O)cc1 [Compound 3-2] : 6.87

Where do the numbers come from? From patent US11384060B2.
